Assay: log P (neutral) by HPLC on reversed-phase column (EEC Directive 79/831 Annex V.A8)
Format: physicochemical
Conditions: reversed-phase C18 HPLC column, reversed-phase C 18, 55° C., neutral range pH 7.8
Method: The log P values are measured according to EEC Directive 79/831 Annex V.A8 by HPLC (high-performance liquid chromatography) on a reversed-phase column (C 18). Temperature: 55° C. […] Calibration is effected using unbranched alkan-2-ones (having 3 to 16 carbon atoms) with known log P values (log P values determined on the basis of the retention times by linear interpolation between two successive alkanones).
Reported chromatographic logP values for a set of compounds

smiles-string: Cn1c(-c2nn3ccccc3c2Br)nc2cc(C(F)(F)F)ncc21
chromatographic logP: 2.86

smiles-string: CCS(=O)(=O)c1c(-c2nc3cc(C(F)(F)F)ncc3n2C)nn2cccnc12
chromatographic logP: 1.58

smiles-string: CCS(=O)(=O)c1c(-c2nc3cc(C(F)(F)F)ncc3n2C)nn2c(C)cc(C)nc12
chromatographic logP: 2

smiles-string: CCS(=O)(=O)c1c(-c2nc3cc(C(F)(F)F)ncc3n2C)nn2ccccc12
chromatographic logP: 2.26
